organism: Cavia porcellus; experiment: Tested for its antagonism to the contraction induced by CCK-4 in guinea pig ileum longitudinal muscle (10e-6 M) at 10e-5 M concentration
measured-attribute: Antagonism (%)
Write the value in % as a bare number.

Some solved cases for reference:
CCCC[C@H](NC(=O)[C@H](Cc1c[nH]c2ccccc12)NC(=O)OC(C)(C)C)[C@@H](C#N)N[C@@H](CC(=O)O)C(=O)N[C@@H](Cc1ccccc1)C(N)=O = 52
CC1(C)[C@H]2CC[C@@]1(C)[C@H](OC(=O)N[C@](C)(Cc1c[nH]c3ccccc13)C(=O)NC[C@H](NC(=O)CCC(=O)O)c1ccccc1)C2 = 85
CCCC[C@H](N[C@@H](C#N)[C@H](Cc1c[nH]c2ccccc12)NC(=O)OCc1ccccc1)C(=O)N[C@@H](CC(=O)O)C(=O)N[C@@H](Cc1ccccc1)C(N)=O = 100
CCCC[C@H](NC(=O)[C@H](Cc1c[nH]c2ccccc12)NC(=O)OC(C)(C)C)[C@H](C#N)N[C@@H](CC(=O)O)C(=O)N[C@@H](Cc1ccccc1)C(N)=O = 48
CCCC[C@H](N[C@H](C#N)[C@H](Cc1c[nH]c2ccccc12)NC(=O)OCc1ccccc1)C(=O)N[C@@H](CC(=O)N[C@@H](Cc1ccccc1)C(N)=O)C(=O)O = 56

Entry CCCC[C@H](N[C@H](C#N)[C@H](Cc1c[nH]c2ccccc12)NC(=O)OCc1ccccc1)C(=O)N[C@@H](CC(=O)O)C(=O)N[C@@H](Cc1ccccc1)C(N)=O , Antagonism reported as 100

Reported Antagonism ( CCCC[C@H](N[C@@H](C#N)[C@H](Cc1c[nH]c2ccccc12)NC(=O)OCc1ccccc1)C(=O)N[C@@H](CC(=O)N[C@@H](Cc1ccccc1)C(N)=O)C(=O)O ) = 93
